Molecular target: Replicative DNA helicase DnaB (Mycobacterium tuberculosis, UniProt P9WMR3)
Sequence (P9WMR3 1-399, added parts left off): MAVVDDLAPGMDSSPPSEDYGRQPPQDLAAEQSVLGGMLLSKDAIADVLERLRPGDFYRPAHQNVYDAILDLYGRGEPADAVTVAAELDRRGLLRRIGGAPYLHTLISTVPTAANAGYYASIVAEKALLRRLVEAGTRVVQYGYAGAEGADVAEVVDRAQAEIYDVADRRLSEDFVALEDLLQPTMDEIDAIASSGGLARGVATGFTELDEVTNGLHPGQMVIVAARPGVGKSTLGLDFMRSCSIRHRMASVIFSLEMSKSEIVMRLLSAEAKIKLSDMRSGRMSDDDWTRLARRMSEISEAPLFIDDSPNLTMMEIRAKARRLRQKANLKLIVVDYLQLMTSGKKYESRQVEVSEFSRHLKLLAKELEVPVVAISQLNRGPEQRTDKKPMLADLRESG
Test: DnaB intein splicing inhibitors, dose response, biochemical, cell-free fluorescence (AID 449749)
Type: functional
Activity calls are given as the source filed them. Cut-off read from the data, not from the text of the source: actives have a measured AC50 and inactives only a lower limit.
Assay Metric: AC50

CCC(=O)OCCNc1cc(Sc2nccn2C)c2nonc2c1[N+](=O)[O-] = 2.9 µM (active)
Oc1nc(Nc2ccccc2)cc2cc(Br)ccc12 = > 120 µM (inactive)
Cc1cc(C(=O)Cn2ncc(Cl)c(Cl)c2=O)c(C)n1CC(F)(F)F = 3.01 µM (active)
CCOC(=O)C1=C(c2ccc(OC)cc2)C(=O)c2ccccc2C1=O = 4.41 µM (active)
O=[N+]([O-])c1c(NCc2ccco2)ccc2nonc12 = 8.52 µM (active)
O=C1C(=O)c2ccccc2-c2ccccc21 = 6.47 µM (active)
CC(=O)c1cccc(-c2ccc3c(=O)[nH]c(Nc4ccccc4)cc3c2)c1 = > 380 µM (inactive)
O=C(c1c[nH]c(C(=O)C(Cl)(Cl)Cl)c1)c1ccc(F)cc1Cl = 13 µM (active)
O=C1C=C(N(CCO)Cc2ccccc2)c2ccccc2C1=O = > 380 µM (inconclusive)
Cc1ccc(C(=O)n2cnc3ccccc32)cc1C = 37.7 µM (active)
O=C(c1cccc(C(F)(F)F)c1)C1CCCN(Cc2ncc[nH]2)C1 (stereo not drawn) = > 380 µM (inactive)
CCc1ccc(OCC(=O)N/N=C2\CC(=O)c3ccccc32)cc1 = 6.09 µM (active)
Cc1ccc(S(=O)(=O)c2c(N)n(CCC(C)C)c3nc4ccccc4nc23)cc1 = > 380 µM (inactive)
Nc1ccc2[nH]c(Cc3ccccc3)nc2c1 = > 380 µM (inactive)
Cc1cc[n+](C2=C([N-]S(=O)(=O)c3cccs3)C(=O)c3ccccc3C2=O)cc1C = 3.69 µM (active)
Cc1ccc(C2C(C#N)=C(N)Oc3n[nH]c(-c4cccs4)c32)cc1 (stereo not drawn) = 4.21 µM (active)
COC(=O)[C@@]1(Cc2ccccc2)[C@@H]2C(=CC(=O)[C@H]2CC(=O)C(=O)N(C)C)CN1C(=O)c1ccccc1 = < 0.018 µM (active)
CSc1nc(O)c(Nc2cccc(Cl)c2)c(O)n1 = 64.9 µM (active)
